- experimental target: DNMT3B Δ214 (3BΔ214);DNMT3L CLD (3L) (human;human?, UniProt Q9UBC3;Q9UJW3 215-853;179-379, |)
- Sequence (Q9UJW3 179-379, stated change not applied, chain 2 of 2, other chains not shown): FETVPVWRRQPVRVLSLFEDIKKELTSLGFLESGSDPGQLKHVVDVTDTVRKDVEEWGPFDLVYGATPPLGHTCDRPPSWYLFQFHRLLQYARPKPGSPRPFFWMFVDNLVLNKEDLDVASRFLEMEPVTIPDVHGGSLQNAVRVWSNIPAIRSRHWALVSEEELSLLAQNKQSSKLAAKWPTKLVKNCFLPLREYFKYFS
- assay procedure: fluorescence polarization
endpoint label: Kd (nM)
One number for each entry, in nM.

Query string: Return value of Kd for input 30-bp FAM dsDNA (dsDNA) DNA 1: CTGAATACTACTTGCGCTCTCTAACCTGAT DNA 2: ATCAGGTTAGAGAGCGCAAGTAGTATTCAG , no commentary.
Result string: 1390
